- Target Desc: hNaV1.7 (Homo sapiens, UniProt Q15858)
- Construct: expressed in transfected cells; host or cells: HEK293
- Sequence (Q15858 whole entry): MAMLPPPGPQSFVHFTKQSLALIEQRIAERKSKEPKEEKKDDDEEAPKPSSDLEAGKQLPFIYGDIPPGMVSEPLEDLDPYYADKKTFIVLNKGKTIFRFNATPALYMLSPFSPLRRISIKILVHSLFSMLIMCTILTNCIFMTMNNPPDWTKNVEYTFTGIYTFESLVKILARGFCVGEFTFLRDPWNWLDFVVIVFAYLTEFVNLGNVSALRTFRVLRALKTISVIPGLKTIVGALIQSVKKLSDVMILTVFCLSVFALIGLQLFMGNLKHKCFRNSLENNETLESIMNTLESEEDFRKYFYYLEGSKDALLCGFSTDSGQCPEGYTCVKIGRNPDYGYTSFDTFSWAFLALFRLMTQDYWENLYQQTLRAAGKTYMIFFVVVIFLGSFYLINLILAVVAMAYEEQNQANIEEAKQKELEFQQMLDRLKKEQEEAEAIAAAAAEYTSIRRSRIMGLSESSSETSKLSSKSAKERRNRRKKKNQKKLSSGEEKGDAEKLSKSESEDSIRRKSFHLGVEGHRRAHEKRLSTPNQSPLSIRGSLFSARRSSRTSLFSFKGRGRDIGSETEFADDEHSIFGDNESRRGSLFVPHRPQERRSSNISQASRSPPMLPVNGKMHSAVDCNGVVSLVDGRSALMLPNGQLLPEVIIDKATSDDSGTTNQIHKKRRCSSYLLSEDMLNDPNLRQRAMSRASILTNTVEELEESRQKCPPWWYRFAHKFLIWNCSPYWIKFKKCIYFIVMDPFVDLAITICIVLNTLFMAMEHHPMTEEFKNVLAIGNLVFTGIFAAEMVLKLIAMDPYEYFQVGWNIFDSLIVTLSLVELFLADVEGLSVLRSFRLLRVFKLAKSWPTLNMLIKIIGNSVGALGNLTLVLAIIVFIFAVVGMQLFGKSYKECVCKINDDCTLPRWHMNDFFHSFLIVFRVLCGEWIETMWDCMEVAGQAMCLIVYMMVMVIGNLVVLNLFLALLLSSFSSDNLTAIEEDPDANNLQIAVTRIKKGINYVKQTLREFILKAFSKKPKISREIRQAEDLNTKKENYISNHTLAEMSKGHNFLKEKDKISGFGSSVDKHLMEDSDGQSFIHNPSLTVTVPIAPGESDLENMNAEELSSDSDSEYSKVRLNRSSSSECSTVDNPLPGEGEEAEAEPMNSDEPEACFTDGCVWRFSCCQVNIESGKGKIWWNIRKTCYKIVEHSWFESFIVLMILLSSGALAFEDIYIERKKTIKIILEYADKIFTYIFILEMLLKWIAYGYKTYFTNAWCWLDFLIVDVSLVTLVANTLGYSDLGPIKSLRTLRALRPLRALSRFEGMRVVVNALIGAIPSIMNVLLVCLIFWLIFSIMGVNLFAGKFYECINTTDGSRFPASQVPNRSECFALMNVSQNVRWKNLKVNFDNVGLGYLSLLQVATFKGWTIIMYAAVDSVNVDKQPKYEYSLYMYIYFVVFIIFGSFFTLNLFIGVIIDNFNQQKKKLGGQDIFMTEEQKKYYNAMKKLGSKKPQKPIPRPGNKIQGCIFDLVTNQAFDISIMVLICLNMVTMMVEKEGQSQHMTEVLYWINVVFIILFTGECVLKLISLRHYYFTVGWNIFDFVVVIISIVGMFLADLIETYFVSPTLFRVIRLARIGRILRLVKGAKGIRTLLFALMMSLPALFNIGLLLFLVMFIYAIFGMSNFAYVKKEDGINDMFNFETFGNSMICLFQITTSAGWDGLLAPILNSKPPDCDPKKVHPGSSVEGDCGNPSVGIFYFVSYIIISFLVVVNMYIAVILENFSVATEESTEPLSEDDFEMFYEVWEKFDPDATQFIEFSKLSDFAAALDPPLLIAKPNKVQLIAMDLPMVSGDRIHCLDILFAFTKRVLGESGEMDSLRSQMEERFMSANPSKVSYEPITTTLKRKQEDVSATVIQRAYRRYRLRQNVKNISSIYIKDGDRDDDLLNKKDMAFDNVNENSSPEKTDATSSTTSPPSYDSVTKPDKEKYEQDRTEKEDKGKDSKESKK
- Assay Explanation: QPatch NaV1.7 assay (whole-cell patch clamp, QPatch16x)
- Type: cell-based
- Experimental Setup: holding voltage −90 mV (most channels closed), HEK293-hNaV1.7 cells, read-out: QP Nav1.7 −90 mV pIC50 (converted)
- Experimental: The compounds of the invention were tested in a QPatch NaV1.7 assay. HEK293-hNaV1.7 cells were grown in DMEM-F12+10% FBS culture media at 37° C. At a confluency of 50-70% cells were dissociated from culture flasks & triturated to ensure unicellular cell suspension; cell density was measured & adjusted to 2-3×10^6 cells/ml. Recordings were obtained using QPatch16x. The external solution was (in mM): NaCl, 128; KCl, 5; MgCl2, 2; CaCl2, 2; Glucose, 30; HEPES, 15; pH 7.3, 305-315 mOsm. […]
Where a name gives a salt, the structure may show the parent alone.
Catalogue of compounds with associated IC50
I only need the number, in µM, no unit after it.

Answered examples (3):
- Compound: "Cc1cc(-c2ccc(C(F)(F)F)cc2)cc([C@H]2CC[C@]3(CCCNC3=O)N2)n1 [Example 100, hydrochloride]"
  IC50 (µM): 1
- Compound: "CCOc1cc(-c2cc(C)nc([C@@H]3CC[C@@]4(CCN(C)C4=O)N3)c2)ccc1F [Example 126, hydrochloride]"
  IC50 (µM): 316
- Compound: "O=C1NCC[C@@]12CC[C@@H](c1cc(-c3ccc(C(F)(F)F)cc3F)ccn1)N2 [Example 38, hydrochloride]"
  IC50 (µM): 63.1

Query compound follows.
Asked: Enter recorded IC50 with hNaV1.7 (Homo sapiens, UniProt Q15858) for O=C1NCCC[C@]12CC[C@H](c1cc(-c3ccc(C(F)(F)F)cc3)ccn1)N2 [Example 50, hydrochloride] here.
Given back: 2.51
